Origin of the recorded values: PubChem BioAssay (NCATS)

- protocol.summary: qHTS profiling of the MIPE4 collection as inhibitors of Plasmodium falciparum (HB3) proliferation (AID 743347)
- condition: P. falciparum HB3 in erythrocytes, SYBR Green DNA, 72 h; at 28.5 µM (top of the series) unless noted
Label YES when growth, % of control is strictly below 10%; at or above that, label NO.

Solved cases below.
INSERT INTO results (compound, cat) VALUES
  ('O=C1c2c(O)cc(O)cc2O[C@H](c2cc(O)c(O)c(O)c2)[C@H]1O', 'NO'),
  ('NC(=O)[C@@H](CCC(F)(F)F)N(Cc1ccc(-c2ncon2)cc1F)S(=O)(=O)c1ccc(Cl)cc1', 'NO'),
  ('CC(=O)Nc1ccc([C@H](C)C(=O)Nc2ncc(C(C)C)s2)cc1', 'YES'),
  ('CCn1c(C(=O)N(C2CC2)C2CC2)cc2c3c(ncn3C)c(Nc3cc(C)n(C)n3)nc21', 'NO'),
  ('Clc1ccc(C(c2ccc(Cl)cc2)n2cc[n+](CC(OCc3ccc(Cl)cc3Cl)c3ccc(Cl)cc3Cl)c2)cc1 (centres undefined)', 'YES'),
  ('O=C1C[C@@H](c2ccc(O)cc2)Oc2cc(O)cc(O)c21', 'YES'),
  ('O=C(O)[C@H]1O[C@H](Oc2cc3oc(-c4ccccc4)cc(=O)c3c(O)c2O)[C@H](O)[C@@H](O)[C@H]1O', 'NO');

Task item: Quick check: growth, % of control of N#CC(=C(N)Sc1ccccc1N)C(C#N)=C(N)Sc1ccccc1N under 10%?
Reply: YES
